Test system: MCF-7 human mammary cells
Test: Effect on the proliferation of mammary cells
Format: cell-based
Set-up: key: Mixed: slight agonist activity at very low concentrations and an inhibitory activity at higher concentrations
Conditions: 7 days culture, steroid-free medium, DNA determination; oestradiol at 10^−10M = 100% agonist activity
Readout Label: ACTIVITY (proliferative activity on MCF-7 cells)

Param readout= ACTIVITY (proliferative activity on MCF-7 cells); system= MCF-7 human mammary cells; entry= C[C@]12C[C@H](c3ccc(OCCN4CCCC4)cc3)[C@@H]3c4ccc(O)c(Cl)c4CC[C@H]3[C@@H]1CC[C@@H]2O [Example 23] ; returns value. Mixed

What measured ACTIVITY (proliferative activity on MCF-7 cells) is associated with CC1(O)CCC2C3CCc4c(ccc(O)c4Cl)C3C(c3ccc(OCCN4CCCCC4)cc3)CC21C (stereo not drawn) [Example 30] on MCF-7 human mammary cells? Mixed

---

System: MCF-7 human mammary cells
Experiment: Effect on the proliferation of mammary cells
Format: cell-based
Parameters: key: Mixed: slight agonist activity at very low concentrations and an inhibitory activity at higher concentrations
Conditions: 7 days culture, steroid-free medium, DNA determination; oestradiol at 10^−10M = 100% agonist activity
Readout Label: ACTIVITY (proliferative activity on MCF-7 cells)

Would you kindly share the measured ACTIVITY (proliferative activity on MCF-7 cells) for C[C@]12C[C@H](c3ccc(OCCN4CCCCC4)cc3)[C@@H]3c4ccc(O)c(Cl)c4CC[C@H]3[C@@H]1CCC2=O ? Mixed

---

Tested on: ovariectomized female rat
Experiment: Bone impact study in the ovariectomized female rat at the age of 3 months (tibia BMD, uterus weight, seric cholesterol)
Assay type: in vivo
Conditions: 1.0 mg/kg po, OVX rat, 4 weeks; seric cholesterol, % relative to OVX animals receiving only solvent
Readout Label: Cholesterol % (%)
Respond numerically; units are % and should not be typed.

These solved cases illustrate the format of a correct answer.
Give its Cholesterol % value. Item: C[C@]12C[C@H](c3ccc(OCCN4CCCCC4)cc3)[C@@H]3c4ccc(O)c(Cl)c4CC[C@H]3[C@@H]1CCC2=O [Example 1] −48

Reported Cholesterol %, molecule CCN(CC)CCOc1ccc([C@H]2C[C@]3(C)[C@@H](O)CC[C@H]3[C@@H]3CCc4c(ccc(O)c4Cl)[C@H]32)cc1 [Example 20] : ____ −40

# input molecule: C[C@]12C[C@H](c3ccc(OCCN4CCCC4)cc3)[C@@H]3c4ccc(O)c(Cl)c4CC[C@H]3[C@@H]1CC[C@@H]2O [Example 23] ; wanted: its Cholesterol % −53

Field: next molecule
I would be grateful if you could share the reported Cholesterol % for CC1(O)CCC2C3CCc4c(ccc(O)c4Cl)C3C(c3ccc(OCCN4CCCCC4)cc3)CC21C (stereo not shown) [Example 30] . −48
